Assay: Cytotoxicity against BALB/c mouse splenocytes at 10 uM after 48 hrs by MTT assay
Type: cell-based, Splenocyte
Conditions: read-out: INH
TRUE if cytotoxicity at 48 h, 10 µM is below 4%. FALSE if not; exact matches included in FALSE.

Past entries and their recorded results:
>  <structure>
COc1cc(OC)c2c(OC(=O)c3ccccc3Cl)ccnc2c1

>  <assignedCategory>
TRUE

$$$$
>  <structure>
COc1cc(OC)c2c(OC(=O)c3ccccc3C)ccnc2c1

>  <assignedCategory>
FALSE

$$$$
>  <structure>
CCCCC(=O)Oc1ccnc2cc(OC)cc(OC)c12

>  <assignedCategory>
FALSE

$$$$

Q. Criterion: cytotoxicity at 48 h, 10 µM strictly below 4%. Is it met by `COc1cc(OC)c2c(OC(=O)c3ccc(Br)cc3)ccnc2c1` ?
A. FALSE

Q. Now consider `COc1cc(OC)c2c(OC(=O)c3c(Cl)cccc3Cl)ccnc2c1` and answer again.
A. FALSE

Q. Queued: `COc1cc(OC)c2c(OC(=O)c3ccccc3OC)ccnc2c1`
A. FALSE

Q. Follow-up entry: `COc1cc(OC)c2c(OC(=O)c3ccccc3)ccnc2c1`
A. TRUE
